- Test system: HT-29
- PROCEDURE DETAILS: Cytotoxicity against human HT-29 cells assessed as reduction in cell viability measured after 24 hrs by MTT assay
- Format: functional, cell-based
- ASSAY CONDITIONS: HT-29, 24 h
MEASUREMENT NAME: pIC50
Kindly note that pIC50 refers to -log10 of the concentration in mol/L and answer with the value alone.

COC(=O)c1cc2c(cc1Nc1ccc(OC)c(OC)c1)OCCO2    6.26

What does the record list as pIC50 for COC(=O)c1cc2c(cc1Nc1cc(Br)c(OC)c(Br)c1)OCCO2 ?
5.83

// pIC50 lookup, key: COc1cc(Nc2cc3c(cc2C(=O)O)OCO3)cc(OC)c1OC
5.85

Item COC(=O)c1cc2c(cc1Nc1cc(F)c(OC)c(F)c1)OCCO2 has what recorded pIC50?
5.35

Please report the recorded pIC50 for COc1cc([C@@H]2c3cc4c(cc3[C@H](O)[C@H]3COC(=O)[C@H]23)OCO4)cc(OC)c1OC .
7.64

Record request: pIC50 value, item COc1c(F)cc(Nc2cc3c(cc2C(=O)NN)OCO3)cc1F
5.44

Origin of the recorded values: ChEMBL document CHEMBL5137013
